target: Recombinant human renin (Homo sapiens, UniProt P00797); test: Inhibition of renin (fluorogenic peptide substrate); conditions: recombinant human renin 5 nM, substrate 10 μM, 2 h at room temperature, Tris buffer pH 8; compounds tested as the obtained salt
Sequence (P00797 67-406): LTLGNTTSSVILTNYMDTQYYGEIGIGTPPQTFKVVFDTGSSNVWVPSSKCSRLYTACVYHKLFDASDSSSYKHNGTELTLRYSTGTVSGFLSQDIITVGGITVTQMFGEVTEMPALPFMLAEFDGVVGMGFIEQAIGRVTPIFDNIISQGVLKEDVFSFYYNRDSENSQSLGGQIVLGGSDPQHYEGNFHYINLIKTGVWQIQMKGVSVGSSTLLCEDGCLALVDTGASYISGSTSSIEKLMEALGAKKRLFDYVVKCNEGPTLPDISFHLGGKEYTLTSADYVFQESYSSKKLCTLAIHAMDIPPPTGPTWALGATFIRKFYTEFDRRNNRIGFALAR
pIC50: −log10 of the molar value.
Decision: pIC50 >= 7 yields TRUE, all other cases yield FALSE.

Reference set (3 entries):
Cc1c(F)cccc1Oc1c(C(=O)N2CCNCC2)c2cccnc2n1-c1ccccc1 [Example 129]	FALSE
Cc1ccc(F)c(C)c1Oc1c(C(=O)N2CCNCC2)c2ccncc2n1-c1ccccc1 [Example 37]	TRUE
Cc1ccccc1Oc1c(C(=O)N2CCNCC2)c2ncccc2n1-c1ccccc1 [Example 1]	FALSE

Could you tell me if the measured pIC50 of COC(=O)CC1CN(C(=O)c2c(Oc3c(C)cccc3C)n(-c3ccccc3)c3cccnc23)CCN1 (centres unmarked) [Example 58] reaches 7 or more?
TRUE

Next compound: CCCc1ccnc2c1c(C(=O)N1CCNCC1)c(Oc1cc(F)ccc1C)n2-c1ccccc1 [Example 133]
FALSE

Next compound: COc1cc2c(cn1)c(C(=O)N1CCN[C@@H](C)C1)c(Cc1cccc(F)c1C)n2C1CCCCC1 [Example 113]
FALSE

###

biological target: Recombinant human renin (Homo sapiens, UniProt P00797); assay: Inhibition of renin (fluorogenic peptide substrate); details: recombinant human renin 5 nM, substrate 10 μM, 2 h at room temperature, Tris buffer pH 8; compounds tested as the obtained salt
ENDPOINT LABEL: pIC50
// field semantics: pIC50 = negative decimal log of concentration (mol/L)

Suppose we examine the compound COc1cc2c(C(=O)N3CCNCC3)c(Cc3cccc(F)c3C)n(-c3ccccc3)c2cn1 ; what pIC50 value has been reported?
6.07

Next compound: COc1ccc2c(C(=O)N3CCNCC3)c(Oc3c(C)cccc3C)n(-c3ccccc3)c2n1
8.52

Next compound: Cc1cccc(C)c1Oc1c(C(=O)N2CCNCC2)c2cnc(O)cc2n1C1CCCCC1
7.10

Next compound: Cc1ccc(F)cc1Oc1c(C(=O)N2CCNCC2)c2ccnc(Cl)c2n1-c1ccccc1
6.49

Next compound: Cc1c(F)cccc1Cc1c(C(=O)N2CCNCC2)c2cc(O)cnc2n1-c1ccccc1
8.25

Next compound: O=C(c1c(Cc2c(F)cccc2Cl)n(-c2ccccc2)c2ccncc12)N1CCNCC1
7.00

Next compound: CC(c1ccccc1)c1c(C(=O)N2CCNCC2)c2ncccc2n1-c1ccccc1 (stereo not drawn)
6.00

Next compound: COC[C@H]1CN(C(=O)c2c(Oc3c(C)cccc3C)n(-c3ccccc3)c3cccnc23)CCN1
6.54

Next compound: Cc1cccc(C)c1Oc1c(C(=O)N2CCNCC2Cc2ccccc2)c2ncccc2n1-c1ccccc1 (stereo not drawn)
6.38

###

target: Recombinant human renin (Homo sapiens, UniProt P00797); assay: Inhibition of renin (fluorogenic peptide substrate); details: recombinant human renin 5 nM, substrate 10 μM, 2 h at room temperature, Tris buffer pH 8; compounds tested as the obtained salt
One threshold, 200 nM, splits the recorded IC50 values: lower ones are rule met, equal or higher ones are rule not met.

Reference set (3 entries):
CCOc1cnc2c(C(=O)N3CCNCC3)c(Oc3c(C)cccc3C)n(-c3ccccc3)c2c1	rule met
Cc1c(F)cc(F)cc1Oc1c(C(=O)N2CCNCC2)c2ncccc2n1-c1ccccc1	rule not met
Cc1c(F)cccc1Cc1nccc2c(C(=O)N3CCNCC3)c(Cc3cccc(F)c3C)n(-c3ccccc3)c12	rule met

Hello, is IC50 of the following compound strictly smaller than 200 nM? Cc1ccc(F)cc1Sc1c(C(=O)N2CCN[C@@H](C)C2)c2ncccc2n1-c1ccccc1
rule met

Next compound: Cc1c(F)cccc1Cc1c(C(=O)N2CCNCC2)c2cccnc2n1-c1ccccc1
rule met

Next compound: Cc1cccc(C)c1Oc1c(C(=O)N2CCNCC2)c2ncc(OCC(=O)O)cc2n1-c1ccccc1
rule met

Next compound: Cc1cccc(C)c1Oc1c(C(=O)N2CCN[C@@H](CC(C)C)C2)c2ncccc2n1-c1ccccc1
rule not met

Next compound: Cc1c(F)cccc1Cc1c(C(=O)N2CCN[C@@H](CO)C2)c2cnc(O)cc2n1C1CCCCC1
rule not met
